- ASSAY_NAME: qHTS of small molecules that selectively kill Giardia lamblia: Hit Validation. Note: potency is the fitted concentration of half-maximal effect.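 Note: viability measured as ATP content by luminescence so killing lowers signal; trophozoites exposed to compounds for 48 h anaerobically at 37 °C; nearly all actives have a fitted effect of over 65% in size.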
- PARTICULARS: Giardia lamblia trophozoite viability, dose-response; series mostly up to 38.3 µM
Out of some 1,300 compounds screened, about 1,000 (77%) were called active. About 7% were inconclusive and are not listed. So high a share suggests a set chosen from earlier hits. The list shows a part of the results.
MEASURED_ATTRIBUTE: Potency

O=C(NNC(=O)c1ccncc1)Nc1cccc([N+](=O)[O-])c1 = inactive
O=C(Nc1cccc(NC(=O)c2cccs2)c1)c1ccc([N+](=O)[O-])o1 = 729 nM (active)
O=C(Nc1ccc(O)c2c(=O)cc(-c3ccccc3Cl)oc12)c1ccc(F)cc1 = inactive
Cc1cc(C)cc(NC(=O)c2ccc([N+](=O)[O-])o2)c1 = 1030 nM (active)

FYI, the data here is from PubChem BioAssay AID588397.
